Numbers sourced from patent US20250228882A1.

Assay: Bidirectional Caco-2 permeability assay
Format: in vitro ADME
Conditions: human; Caco-2 monolayer; ER>2 indicates potential efflux substrate; read-out: ER (efflux ratio)
Decision: efflux ratio at 90 min >= 1 yields true, all other cases yield false.

CC(=O)OCOC(=O)Nc1ncnn2c([C@]3(C#N)O[C@H](COC(=O)Cc4ccccc4)[C@@H](OC(=O)[C@@H](N)C(C)(C)C)[C@H]3O)ccc12 [Compound 30]: true
CC[C@H](C)C(=O)Nc1ncnn2c([C@]3(C#N)O[C@H](COC(=O)Cc4ccccc4)[C@@H](OC(=O)[C@@H](N)C(C)(C)C)[C@H]3O)ccc12 [Compound 10]: false
CC(C)[C@H](C)C(=O)Nc1ncnn2c([C@]3(C#N)O[C@H](COC(=O)Cc4ccccc4)[C@@H](OC(=O)[C@@H](N)C(C)(C)C)[C@H]3O)ccc12 [Compound 22]: true

INPUT: // inclusive: efflux ratio at 90 min at least 1? input: CCOC(C)(C)C(=O)Nc1ncnn2c([C@]3(C#N)O[C@H](COC(=O)Cc4ccccc4)[C@@H](OC(=O)[C@@H](N)C(C)(C)C)[C@H]3O)ccc12 [Compound 6]
OUTPUT: true

INPUT: // inclusive: efflux ratio at 90 min at least 1? input: CCC(CC)C(=O)Nc1ncnn2c([C@]3(C#N)O[C@H](COC(=O)Cc4ccccc4)[C@@H](OC(=O)[C@@H](N)C(C)(C)C)[C@H]3O)ccc12 [Compound 8]
OUTPUT: false
